test system: Arabidopsis thaliana plants; assay: SOA1 phenotypic analysis of herbicide-treated plants (incl. MIC/Tmic); type: in vivo; settings: herbicide sprayed on 21-day plants; numeric value standardized to mock treated
This section presents compounds with their documented newLeafAnthocyanins, Dev. values.
test_readout: newLeafAnthocyanins, Dev.

compound: O=C(O)CNCP(=O)(O)O [Glyphosate]
assay_target: Arabidopsis thaliana plants
number: 1

compound: c1cc[n+]2c(c1)-c1cccc[n+]1CC2
assay_target: Arabidopsis thaliana plants
number: 0

compound: CP(=O)(O)CCC(N)C(=O)O (stereo not drawn) [Glufosinate]
assay_target: Arabidopsis thaliana plants
number: 0

compound: CN(C)C(=O)Nc1ccc(Cl)c(Cl)c1
assay_target: Arabidopsis thaliana plants
number: 0

compound: C[n+]1ccc(-c2cc[n+](C)cc2)cc1
assay_target: Arabidopsis thaliana plants
number: 0

compound: O=C(O)COc1ccc(Cl)cc1Cl
assay_target: Arabidopsis thaliana plants
number: 0
